# System: T1, human TREM2 (human, UniProt Q9NZC2 19-174, limits assumed)
# T1 construct: also called triggering receptor expressed on myeloid cells 2
# T1 sequence: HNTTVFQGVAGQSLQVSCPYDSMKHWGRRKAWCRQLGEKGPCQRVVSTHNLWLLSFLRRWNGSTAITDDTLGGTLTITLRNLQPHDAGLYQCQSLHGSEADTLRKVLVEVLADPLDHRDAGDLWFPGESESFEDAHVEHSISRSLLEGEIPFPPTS
# Assay notes: 2nd screen, 2 nM
Observed property: Binding Signal

In the examples that follow, each entry is paired with its recorded Binding Signal.
V2 (antibody, V domains shown, also called 6E7 variant V2) VH: EVQLVQSGAEVKKPGESLKISCKGSGSSFTSYWIAWVRQMPGKGLEWMGIIYPGDGDTRYSPSFQGQVTISADKSISTAYLQWSSLKASDTAMYFCARSRTFYYDSSDYFDYWGQGTLVTVSS VL: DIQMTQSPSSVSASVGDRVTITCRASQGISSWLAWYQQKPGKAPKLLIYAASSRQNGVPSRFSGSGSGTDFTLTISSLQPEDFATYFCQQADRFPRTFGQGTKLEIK ... 2.23 fold over 6E7 parental antibody
V63 (antibody, V domains shown, also called 6E7 variant V63) VH: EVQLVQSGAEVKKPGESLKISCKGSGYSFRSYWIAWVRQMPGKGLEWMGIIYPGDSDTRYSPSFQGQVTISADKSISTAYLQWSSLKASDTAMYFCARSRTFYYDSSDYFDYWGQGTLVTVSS VL: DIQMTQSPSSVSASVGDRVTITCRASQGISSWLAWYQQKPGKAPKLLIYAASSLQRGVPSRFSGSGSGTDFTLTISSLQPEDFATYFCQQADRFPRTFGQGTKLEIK ... 4.91 fold over 6E7 parental antibody
V48 (antibody, V domains shown, also called 6E7 variant V48) VH: EVQLVQSGAEVKKPGESLKISCKGSGYSFGSYWIAWVRQMPGKGLEWMGIIYPGDSDVRYSPSFQGQVTISADKSISTAYLQWSSLKASDTAMYFCARMRTFYYDSSDYFDYWGQGTLVTVSS VL: DIQMTQSPSSVSASVGDRVTITCRASQGISSWLAWYQQKPGKAPKLLIYAASSLQTGVPSRFSGSGSGTDFTLTISSLQPEDFATYFCQQADSLPRTFGQGTKLEIK ... 2.3 fold over 6E7 parental antibody
V38 (antibody, V domains shown, also called 6E7 variant V38) VH: EVQLVQSGAEVKKPGESLKISCKGSGYSFGSYWIAWVRQMPGKGLEWMGIIYPGDSDVRYSPSFQGQVTISADKSISTAYLQWSSLKASDTAMYFCARQRTFYYDSSDYFDYWGQGTLVTVSS VL: DIQMTQSPSSVSASVGDRVTITCRASQGISSWLAWYQQKPGKAPKLLIYAASSRQNGVPSRFSGSGSGTDFTLTISSLQPEDFATYFCQQADSHPRTFGQGTKLEIK ... 3.44 fold over 6E7 parental antibody

Q. Would you mind telling me what Binding Signal value was observed for V77 (antibody, V domains shown, also called 6E7 variant V77) VH: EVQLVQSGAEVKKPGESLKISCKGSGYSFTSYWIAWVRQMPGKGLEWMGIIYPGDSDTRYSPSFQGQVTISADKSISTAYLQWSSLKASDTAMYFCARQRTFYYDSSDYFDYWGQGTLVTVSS VL: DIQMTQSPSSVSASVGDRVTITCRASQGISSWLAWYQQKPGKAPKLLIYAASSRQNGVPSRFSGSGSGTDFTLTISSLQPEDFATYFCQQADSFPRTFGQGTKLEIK ?
A. 0.83 fold over 6E7 parental antibody

Q. Would you mind telling me what Binding Signal value was observed for V50 (antibody, V domains shown, also called 6E7 variant V50) VH: EVQLVQSGAEVKKPGESLKISCKGSGYSFGSYWIAWVRQMPGKGLEWMGVIYPGDSDTRYSPSFQGQVTISADKSISTAYLQWSSLKASDTAMYFCARQRTFYYDSSDYLDYWGQGTLVTVSS VL: DIQMTQSPSSVSASVGDRVTITCRASQGISSWLAWYQQKPGKAPKLLIYAASSRQNGVPSRFSGSGSGTDFTLTISSLQPEDFATYFCQQADSLPRTFGQGTKLEIK ?
A. 3.39 fold over 6E7 parental antibody

Q. Would you mind telling me what Binding Signal value was observed for V3 (antibody, V domains shown, also called 6E7 variant V3; LV-101/HV-101) VH: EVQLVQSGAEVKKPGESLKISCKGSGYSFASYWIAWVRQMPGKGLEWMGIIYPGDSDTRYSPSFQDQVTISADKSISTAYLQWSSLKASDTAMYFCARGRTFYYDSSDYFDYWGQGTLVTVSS VL: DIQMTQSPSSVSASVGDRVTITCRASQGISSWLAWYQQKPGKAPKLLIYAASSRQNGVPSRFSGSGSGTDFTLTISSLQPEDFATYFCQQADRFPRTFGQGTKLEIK ?
A. 1.95 fold over 6E7 parental antibody
